- Test system: Staphylococcus aureus
- experiment summary: Antimicrobial activity against Staphylococcus aureus 1199B by microdilution method
- Assay type: functional
quantity: MIC

> print(dat)
                                   compound       result
1  CCOC(=O)c1c(C)n(Cc2ccccc2)c2ccc(OCCCN)cc12  > 100 µg/mL
2  CCOC(=O)c1c(C)n(Cc2ccccc2)c2ccc(OCCN3CCN(C)CC3)cc12  > 100 µg/mL
3  CCOC(=O)c1c(C)n(Cc2cccc(C)c2)c2ccc(OCCCN3CCCCC3)cc12     50 µg/mL
4  CCOC(=O)c1c(C)n(Cc2ccc(C)cc2)c2ccc(OCCCN3CCCCC3)cc12     25 µg/mL
5  CCOC(=O)c1c(C)n(Cc2ccccc2F)c2ccc(OCCCN3CCCCC3)cc12  > 100 µg/mL

Query string: Value lookup for MIC; key = "CCOC(=O)c1c(C)n(Cc2ccc([N+](=O)[O-])cc2)c2ccc(OCCCN3CCCCC3)cc12"
Result string: > 100 µg/mL

Query string: Same again, this time with "CCOC(=O)c1c(C)n(CCc2ccccc2)c2ccc(OCCCN3CCCCC3)cc12"
Result string: > 100 µg/mL

Query string: Same again, this time with "CCOC(=O)c1c(C)n(Cc2ccc(F)cc2)c2ccc(OCCCN3CCCCC3)cc12"
Result string: > 100 µg/mL
